CC50 by entry:
test system: HepG2 or HepG2.117 cells; experiment: Cytotoxicity, ATPlite Luminescence Assay; assay type: cell-based, human; conditions: 3-days incubation unless marked with *, ATPlite viability

molecule	CC50
CNC(=O)[C@@H]1CN(C(C)c2ccc(-n3ncnc3C)cn2)C(=O)c2c3c(nn21)C[C@@H](C)N(C(=O)c1ccc(Cl)c(Cl)c1)C3 (single isomer, unassigned) [Compound 41B]	> 50 µM
CNC(=O)[C@@H]1CN(C(C)c2ccc(NCC(F)(F)F)nc2)C(=O)c2c3c(nn21)C[C@@H](C)N(C(=O)c1ccc(Cl)c(Cl)c1)C3 (single isomer, unassigned) [Compound 33B]	> 50 µM
CNC(=O)[C@@H]1CN(C(C)c2cc(F)ccn2)C(=O)c2c3c(nn21)C[C@@H](C)N(C(=O)c1ccc(Cl)c(Cl)c1)C3 (single isomer, unassigned) [Compound 42B]	> 50 µM

----------
test system: HepG2 or HepG2.117 cells; assay: Cytotoxicity, ATPlite Luminescence Assay; format: cell-based, human; details: 3-days incubation unless marked with *, ATPlite viability

compound	CC50
CNC(=O)[C@@H]1CN(C(C)c2ccc(S(=O)(=O)C3CC3)cc2)C(=O)c2c3c(nn21)C[C@@H](C)N(C(=O)c1ccc(Cl)c(C(F)(F)F)c1)C3 (single isomer, unassigned) [Compound 20B]	> 50 µM
CNC(=O)[C@@H]1CN(C(C)c2ccc(OC(F)F)c(F)c2)C(=O)c2c3c(nn21)C[C@@H](C)N(C(=O)c1ccc(Cl)c(Cl)c1)C3 (single isomer, unassigned) [Compound 24B]	25.5 µM
CNC(=O)[C@@H]1CN(C(C)c2ccc(-n3cncn3)cn2)C(=O)c2c3c(nn21)C[C@@H](C)N(C(=O)c1ccc(Cl)c(Cl)c1)C3 (single isomer, unassigned) [Compound 40B]	> 50 µM
CNC(=O)[C@@H]1CN(C(C)c2ccc(-n3nnc(C)n3)cc2)C(=O)c2c3c(nn21)C[C@@H](C)N(C(=O)c1ccc(Cl)c(Cl)c1)C3 (single isomer, unassigned) [Compound 30A]	> 50 µM
CNC(=O)[C@@H]1CN(C(C)c2ccc(OC)nc2)C(=O)c2c3c(nn21)C[C@@H](C)N(C(=O)c1ccc(Cl)c(Cl)c1)C3 (single isomer, unassigned) [Compound 31B]	> 50 µM
CNC(=O)[C@@H]1CN(C(C)c2ccc(N3CCCC3=O)nc2)C(=O)c2c3c(nn21)C[C@@H](C)N(C(=O)c1ccc(Cl)c(Cl)c1)C3 (relative stereo) [Compound 34B]	> 50 µM
CNC(=O)[C@@H]1CN(C(C)c2ccc(C(C)(C)O)cn2)C(=O)c2c3c(nn21)C[C@@H](C)N(C(=O)c1ccc(Cl)c(Cl)c1)C3 (single isomer, unassigned) [Compound 39B]	> 50 µM
CNC(=O)[C@@H]1CN(C(C)c2ccc(-c3nnnn3C)cc2)C(=O)c2c3c(nn21)C[C@@H](C)N(C(=O)c1ccc(Cl)c(Cl)c1)C3 (single isomer, unassigned) [Compound 29B]	> 50 µM
CNC(=O)[C@@H]1CN(C(C)c2ccc(C#N)cc2)C(=O)c2c3c(nn21)C[C@@H](C)N(C(=O)c1ccc(Cl)c(Cl)c1)C3 (single isomer, unassigned) [Compound 23B]	> 50 µM
CNC(=O)[C@@H]1CN(C(C)c2ccccn2)C(=O)c2c3c(nn21)C[C@@H](C)N(C(=O)c1ccc(Cl)c(Cl)c1)C3 (single isomer, unassigned) [Compound 37B]	> 50 µM

----------
assay: Cytotoxicity, ATPlite Luminescence Assay; format: cell-based, human; details: human, HepG2 or HepG2.117 cells, 3-days incubation unless marked with *, ATPlite viability
CC50 by entry:

compound	CC50
CNC(=O)[C@@H]1CN([C@H](C)c2cnc(C(F)(F)F)nc2)C(=O)c2c3c(nn21)C[C@@H](C)N(C(=O)c1ccc(Cl)c(Cl)c1)C3	> 50 µM
CNC(=O)[C@@H]1CN(C(C)c2ccc(NCC(F)(F)F)nc2)C(=O)c2c3c(nn21)C[C@@H](C)N(C(=O)c1ccc(Cl)c(Cl)c1)C3 (single isomer, unassigned) [Compound 33A]	> 50 µM
CNC(=O)[C@@H]1CN([C@@H](C)c2cnc(C(F)(F)F)nc2)C(=O)c2c3c(nn21)C[C@@H](C)N(C(=O)c1ccc(Cl)c(Cl)c1)C3	> 50 µM

----------
Experiment: Human liver microsome stability
Assay type: in vitro ADME
Conditions: human, pooled human liver microsomes, pH 7.4, pooled human liver microsomes 0.5 mg/mL, 1 μM compound, NADPH 1 mM, pH 7.4, 37° C., 0-60 min; read-out: HLM Metabolism t1/2
Protocol: Pooled human liver microsomes (0.5 mg/mL) was pre-incubated with 1 μM test compounds or control compounds (verapamil, warfarin and cerivastatin) in 0.1 M phosphate buffer pH 7.4 containing 1 mM MgCl2 at 37° C. The final concentration of DMSO and acetonitrile are 0.05% and 0.2%, respectively. […] From a plot of ln peak area ratio (compound peak area/internal standard peak area) against time, the gradient of the line is determined. Subsequently, half-life is calculated using the equations below: […]
endpoint: half-life at 1 μM

molecule	endpoint	valueMeasured
CNC(=O)[C@@H]1CN([C@H](C)c2ccc(C(F)(F)F)nc2)C(=O)c2c3c(nn21)C[C@@H](C)N(C(=O)c1ccc(Cl)c(Cl)c1)C3 [Compound 13A]	half-life at 1 μM	> 3 h
C[C@@H]1Cc2nn3c(c2CN1C(=O)c1ccc(Cl)c(C#N)c1)C(=O)N([C@@H](C)c1ccc(OC(F)F)cc1)C[C@H]3C(=O)N(C)C [Compound 27B]	half-life at 1 μM	> 3 h
C[C@@H]1Cc2nn3c(c2CN1C(=O)c1ccc(Cl)c(Cl)c1)C(=O)N([C@H](C)c1ccc(OC(F)F)cc1)CC3 [Ref 1, reference compound]	half-life at 1 μM	0.257 h
CNC(=O)[C@@H]1CN(C(C)c2ccc(C(C)(C)O)nc2)C(=O)c2c3c(nn21)C[C@@H](C)N(C(=O)c1ccc(Cl)c(Cl)c1)C3 (single isomer, unassigned)	half-life at 1 μM	> 3 h
CNC(=O)[C@@H]1CN(C(C)c2ccc(C(F)(F)F)nc2)C(=O)c2c3c(nn21)C[C@@H](C)N(C(=O)c1ccc(Br)c(Cl)c1)C3 (single isomer, unassigned) [Compound 10B]	half-life at 1 μM	> 3 h
CNC(=O)[C@@H]1CN([C@@H](C)c2ccc(C(F)(F)F)nc2)C(=O)c2c3c(nn21)C[C@@H](C)N(C(=O)c1ccc(Cl)c(C(F)(F)F)c1)C3 [Compound 15B]	half-life at 1 μM	> 3 h
CNC(=O)[C@@H]1CN(Cc2ccc(OC(F)F)cc2)C(=O)c2c3c(nn21)C[C@@H](C)N(C(=O)c1ccc(Cl)c(C(F)(F)F)c1)C3	half-life at 1 μM	> 3 h
CC(c1ccccn1)N1CCn2nc3c(c2C1=O)CN(C(=O)c1ccc(Cl)c(Cl)c1)[C@H](C)C3 (mixture of isomers) [Ref 3, reference compound]	half-life at 1 μM	0.11 h
CNC(=O)[C@@H]1CN(C(C)c2ccc(-n3cncn3)cn2)C(=O)c2c3c(nn21)C[C@@H](C)N(C(=O)c1ccc(Cl)c(Cl)c1)C3 (single isomer, unassigned) [Compound 40A]	half-life at 1 μM	> 3 h
CC(c1ccc(C(F)(F)F)nc1)N1C[C@@H](C(=O)N(C)C)n2nc3c(c2C1=O)CN(C(=O)c1ccc(Cl)c(Cl)c1)[C@H](C)C3 (single isomer, unassigned)	half-life at 1 μM	> 3 h
CNC(=O)[C@@H]1CN([C@@H](C)c2ccc(OC(F)F)cc2)C(=O)c2c3c(nn21)C[C@@H](C)N(C(=O)c1ccc(Cl)c(C(F)F)c1)C3	half-life at 1 μM	1.3 h
CNC(=O)[C@@H]1CN([C@@H](C)c2cnc(C(F)(F)F)cn2)C(=O)c2c3c(nn21)C[C@@H](C)N(C(=O)c1ccc(Cl)c(Cl)c1)C3	half-life at 1 μM	> 3 h
CNC(=O)[C@@H]1CN(C(C)c2ccnc(C(F)(F)F)c2)C(=O)c2c3c(nn21)C[C@@H](C)N(C(=O)c1ccc(Cl)c(Cl)c1)C3 (single isomer, unassigned)	half-life at 1 μM	> 3 h
CNC(=O)[C@@H]1CN([C@H](C)c2ccc(S(C)(=O)=O)cc2)C(=O)c2c3c(nn21)C[C@@H](C)N(C(=O)c1ccc(Cl)c(Cl)c1)C3 [Compound 18A]	half-life at 1 μM	> 3 h
CNC(=O)[C@@H]1CN(Cc2ccc(S(=O)(=O)C3CC3)cc2)C(=O)c2c3c(nn21)C[C@@H](C)N(C(=O)c1ccc(Cl)c(C(F)(F)F)c1)C3	half-life at 1 μM	> 3 h
CNC(=O)[C@@H]1CN(C(C)c2nc(C(F)(F)F)cs2)C(=O)c2c3c(nn21)C[C@@H](C)N(C(=O)c1ccc(Cl)c(Cl)c1)C3 (single isomer, unassigned) [Compound 44A]	half-life at 1 μM	> 3 h
CNC(=O)[C@@H]1CN(C(C)c2ccc(N3CCCC3=O)nc2)C(=O)c2c3c(nn21)C[C@@H](C)N(C(=O)c1ccc(Cl)c(Cl)c1)C3 (single isomer, unassigned) [Compound 34A]	half-life at 1 μM	1.83 h
CCC(c1ccc(S(C)(=O)=O)cc1)N1C[C@@H](C(=O)NC)n2nc3c(c2C1=O)CN(C(=O)c1ccc(Cl)c(Cl)c1)[C@H](C)C3 (single isomer, unassigned) [Compound 22A]	half-life at 1 μM	> 3 h
CNC(=O)[C@@H]1CN(C(C)c2ccc(C(F)F)nc2)C(=O)c2c3c(nn21)C[C@@H](C)N(C(=O)c1ccc(Cl)c(Cl)c1)C3 (single isomer, unassigned) [Compound 36A]	half-life at 1 μM	> 3 h
CNC(=O)[C@@H]1CN(C(C)c2ccc(-n3ncnc3C)cn2)C(=O)c2c3c(nn21)C[C@@H](C)N(C(=O)c1ccc(Cl)c(Cl)c1)C3 (single isomer, unassigned) [Compound 41A]	half-life at 1 μM	> 3 h
CNC(=O)[C@@H]1CN([C@@H](C)c2ccc(OC(F)F)cc2)C(=O)c2c3c(nn21)C[C@@H](C)N(C(=O)c1ccc(Cl)c(C(F)(F)F)n1)C3	half-life at 1 μM	> 3 h
